- test: yeast growth modulation, basal conditions, primary screen, YJM789 clinical isolate, OD600, 24 h (AID 1089);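 note: growth of clinical yeast isolate S. cerevisiae YJM 789 seeded 1000 cells per well; test concentration not given here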
- condition description: S. cerevisiae YJM789 growth, higher = more signal, called active from +8 up or from −8 down
observable: z-score
One number for each entry.

Use these answered entries as a reference point.
>>> recorded_measurement("C=C(/C(=C/C[C@@H](OC(=O)c1ccncc1)c1ccc(OCCO)cc1)c1cc(C(=O)OC)ccc1OC)C(C)C")
0.412
>>> recorded_measurement("CCOC(=O)C[C@H]1[C@H](OC(=O)Cc2ccc3c(c2)OCO3)[C@@H](NC(=O)Cc2ccc(OC)cc2)c2cc(OCCCO)ccc2N1C(=O)c1ccccc1")
-0.13
>>> recorded_measurement("O=C1OCCC=C[C@H]2OC34C=CCN(c5ccc(Cl)cc5)C(=O)[C@H]3N(CCCCCO)C(=O)[C@@H]4C12 (stereo partly drawn)")
-0.579
>>> recorded_measurement("C=C[C@@H](C)[C@H](OC(=O)Nc1ccc(SC)cc1)c1ccc(OCCO)cc1")
0.103
>>> recorded_measurement("CO[C@H]1O[C@H](CO)[C@@H](OC(=O)Nc2ccccc2-c2ccccc2)[C@H](OC(=O)Nc2ccc3c(c2)OCO3)[C@@H]1OC(=O)Nc1ccc2c(c1)OCO2")
2.06

Please report z-score for every entry that follows.
1. COCCOC(=O)N1C(=O)[C@@]2(c3cc(C#CC4(O)CCCCCC4)ccc31)[C@H](C(=O)N1CCCCCCC1)[C@H]1C(=O)O[C@H](c3ccccc3)[C@H](c3ccccc3)N1[C@@H]2c1ccc(OCCO)cc1
2. CC(C)(C)N1CC=CC23O[C@@H]4C=CCOC(=O)[C@@H]4[C@H]2C(=O)N(CCCO)[C@@H]3C1=O (stereo partly drawn)
3. C=C(COC)/C(=C/C[C@@H](OC(=O)c1ccncc1)c1ccc(OCCO)cc1)c1cnc2ccccc2c1
4. CC(C)C(=C=CC[C@H](O)c1ccc(OCCO)cc1)C[C@H](O)c1cc(Cl)cc(Cl)c1O

Output line:
1: 0.474; 2: 0.149; 3: -2.16; 4: 0.297

Please report z-score for every entry that follows.
1. COCCCNC(=O)[C@@]1(Sc2ccc(C)cc2)CC(=O)N(C2Cc3ccccc3C2)[C@@H]1c1ccc(CO)cc1I
2. CN(C)CCCNC(=O)[C@@]1(c2ccc([N+](=O)[O-])cc2)CC(=O)N(CC23CC4CC(CC(C4)C2)C3)[C@@H]1c1ccc(CO)cc1
3. COC(=O)[C@]1(CCS(=O)(=O)c2ccccc2)N=C(c2ccc(OCCCO)cc2)O[C@@H]1c1ccccc1CN=[N+]=[N-]
4. CC(C)(C)OC(=O)CC[C@]1(C(=O)O)N=C(c2ccc(OCCCO)cc2)O[C@H]1c1ccccc1

Output line:
1. -0.881
2. -22.2
3. 1.6
4. -0.627

Please report z-score for every entry that follows.
1. C[C@H]1ON(c2ccc(C(=O)OC(C)(C)C)cc2)[C@@H](c2ccc(O)cc2)[C@@H]1C(=O)N1C(=O)OC[C@@H]1c1ccccc1
2. COC(=O)[C@@]1(Cc2ccc(OC)cc2)[C@H]2c3cc(C(=O)N4CCCC4)n(CCc4cc5ccccc5[nH]4)c3C[C@H]2CN1C(=O)c1ccccc1
3. C[C@]1(C(=O)NC2CC2)c2ccccc2C(=O)N(Cc2ccc(OC(F)(F)F)cc2)[C@H]1c1ccc(CO)cc1
4. COc1ccc(C(O)C2C=CC3C(=O)N(c4ccccc4)C(=O)C3N2Nc2ccc(C#N)cc2)c2ccccc12 (stereo not drawn)
5. COC(=O)C(CC#Cc1ccc2c(c1)[C@]1(C(=O)N2)[C@H](C(=O)O)[C@H]2C(=O)O[C@H](c3ccccc3)[C@H](c3ccccc3)N2[C@@H]1c1ccccc1OCCO)C(=O)OC
6. CC(C)(C)OC(=O)CC[C@]1(C(=O)O)N=C(c2ccc(OCCCO)cc2)O[C@H]1c1ccccc1CN=[N+]=[N-]
7. COc1ccc([Si](C)(C)[C@@H]2[C@@H](CC(=O)N3CCC[C@H]3CO)O[C@]3(C(=O)N(Cc4ccc(N5C(=O)c6cccc7cccc5c67)cc4)c4ccccc43)[C@H]2C)cc1

Output line:
1. 0.657
2. 0.596
3. -0.352
4. -1.89
5. 1.93
6. 0.832
7. 0.035

Please report z-score for every entry that follows.
1. COCCCNC(=O)[C@]1(Cc2ccccc2N=[N+]=[N-])N=C(c2ccc(OCCCO)cc2)O[C@@H]1c1ccccc1N=[N+]=[N-]
2. CO[C@H]1O[C@H](CO)[C@@H](OC(=O)Nc2ccc(Oc3ccccc3)cc2)[C@H](OC(=O)Nc2ccccc2-c2ccccc2)[C@@H]1OC(=O)Nc1ccccc1-c1ccccc1
3. COc1ccccc1CN1C(=O)c2ccccc2[C@@H](C(=O)NC(C)C)[C@@H]1c1ccc(CO)cc1
4. CCOc1cc(C(O)C2C=CC3C(=O)N(C)C(=O)C3N2N2CCCCC2)ccc1O (stereo not drawn)

Output line:
1: -0.922; 2: 1.96; 3: -0.309; 4: 1.26

Please report z-score for every entry that follows.
1. COCCCNC(=O)[C@@H]1c2ccccc2C(=O)N(Cc2ccccc2C(F)(F)F)[C@H]1c1ccc(CO)cc1
2. C=C(COC)/C(=C/C[C@@H](OC(=O)c1ccncc1)c1ccc(CO)o1)c1cnc2ccccc2c1
3. CC(C)CN1C(=O)[C@@]2(Cc3ccccc31)c1ccccc1C(=O)N(Cc1ccccc1C(F)(F)F)[C@H]2c1ccc(CO)cc1

Output line:
1: -0.409; 2: -0.854; 3: -1.17

Input line: Look at this compound and give its reported z-score. "C=CCNC(=O)[C@@H]1[C@H]2C(=O)O[C@H](c3ccccc3)[C@H](c3ccccc3)N2[C@H](c2ccccc2OCCO)[C@@]12C(=O)N(C(=O)OCCOC)c1ccc(C#CC3=CCCCC3)cc12"
Output line: 0.363
